Parameter: pKd. Scope: all listed entries.
# System Name: GDP-bound KRAS wild-type protein (Homo sapiens, UniProt P01116)
# Sequence (P01116 whole entry): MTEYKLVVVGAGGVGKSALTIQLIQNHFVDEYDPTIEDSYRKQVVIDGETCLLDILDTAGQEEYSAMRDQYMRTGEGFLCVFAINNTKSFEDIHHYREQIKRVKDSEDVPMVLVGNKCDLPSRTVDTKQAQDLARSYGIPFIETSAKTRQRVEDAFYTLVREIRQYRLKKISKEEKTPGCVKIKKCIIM
# Experiment Description: Binding to KRAS by surface plasmon resonance (SPR), Single Cycle Kinetics
# Reported Conditions: SPR Single Cycle Kinetics, GDP-bound KRAS wild-type protein, 1:1 binding model; read-out: KRAS KD
The meaning of pKd here: minus log10 of the concentration in molar units.

// solved cases for pKd follow
1) CCC(CC)[C@H]1C(=O)N(C)[C@H](C(=O)N(C)C)CC(=O)N(C)[C@@H](COC)C(=O)N[C@@H]([C@@H](C)CC)C(=O)N(C)CC(=O)N(C)[C@H]2C/C=C\CCN(C2=O)[C@@H](Cc2ccc(C(F)(F)F)cc2)C(=O)N(C)CC(=O)N[C@@H](CCc2ccc(Cl)c(Cl)c2)C(=O)N2C[C@H](OC(C)C)C[C@H]2C(=O)NC2(CC(C)(C)C2)C(=O)N1C :: 9.31
2) C=CC[C@H]1C(=O)N[C@@H]([C@@H](C)CC)C(=O)N(C)CC(=O)N(C)[C@H]2CCCCN(C2=O)[C@@H](Cc2ccc(C(F)(F)F)cc2)C(=O)N(C)CC(=O)N[C@@H](CCc2cc(F)c(C(F)(F)F)c(F)c2)C(=O)N2C[C@H](OCC)C[C@H]2C(=O)NC2(CCC2)C(=O)N(C)[C@@H](C2CCCC2)C(=O)N(C)[C@H](C(=O)N(C)C)CC(=O)N1C :: 10.82
3) CC[C@H](C)[C@@H]1NC(=O)[C@H](CC(C)C)N(C)C(=O)C[C@@H](C(=O)N2CCOCC2)N(C)C(=O)[C@H](C2CCCC2)N(C)C(=O)C(C)(C)NC(=O)[C@@H]2CCCN2C(=O)[C@H](CCc2cc(F)c(C(F)(F)F)c(F)c2)NC(=O)CN(C)C(=O)[C@H](Cc2ccc(C(F)(F)F)cc2)N2CCCC[C@@H](C2=O)N(C)C(=O)CN(C)C1=O :: 9.80

INPUT: What value of pKd has been reported for the following compound? `CC[C@H](C)[C@@H]1NC(=O)[C@H](CC(C)C)N(C)C(=O)C[C@@H](C(=O)N2CCCCC2)N(C)C(=O)[C@H](C2CCCC2)N(C)C(=O)C2(CCCC2)NC(=O)[C@@H]2CCCN2C(=O)[C@H](CCc2cc(F)c(C(F)(F)F)c(F)c2)NC(=O)CN(C)C(=O)[C@H](Cc2ccc(C(F)(F)F)cc2)N2CCCCC[C@@H](C2=O)N(C)C(=O)CN(C)C1=O`
OUTPUT: 7.92

INPUT: Again, but for `CCC[C@H]1C(=O)N[C@@H]([C@@H](C)CC)C(=O)N(C)CC(=O)N(C)[C@H]2C/C=C\CCN(C2=O)[C@@H](Cc2ccc(C(F)(F)F)cc2)C(=O)N(C)CC(=O)N[C@@H](CCc2ccc3c(C)cn(C)c3c2)C(=O)N2C[C@H](OCC)C[C@H]2C(=O)NC2(CC(C)(C)C2)C(=O)N(C)[C@@H](C2CCCC2)C(=O)N(C)[C@H](C(=O)N(C)C)CC(=O)N1C`
OUTPUT: 9.25

INPUT: What would you report for `CC[C@H](C)[C@@H]1NC(=O)[C@H](COC)N(C)C(=O)C[C@@H](C(=O)N(C)C)N(C)C(=O)[C@H](C2CCCCC2)N(C)C(=O)C2(CC(C)(C)C2)NC(=O)[C@@H]2C[C@@H](OC3CCC3)CN2C(=O)[C@H](CCc2cc(F)c(C(F)(F)F)c(F)c2)NC(=O)CN(C)C(=O)[C@H](Cc2ccc(C(F)(F)F)cc2)N2CC/C=C\C[C@@H](C2=O)N(C)C(=O)CN(C)C1=O` ?
OUTPUT: 10.00

Data origin: patent US20240158446A1
